# Test system: PANC-1
# method_notes: Cytotoxicity against human PANC1 cells by sulforhodamine B method
# Format: functional, cell-based
pIC50: −log10 of the molar value.
Below, each entry is listed alongside its reported pIC50.

smiles_entry	target_system	comparative_sign	pIC50
COc1cc2cc(-c3ccccc3C)nc(N)c2cc1OC	PANC-1	=	6.08
Cc1cccc(-c2cc3cc(C)ccc3c(N)n2)c1	PANC-1	=	6.70
COc1cc2cc(-c3ccccc3)nc(N)c2cc1OC	PANC-1	=	6.17
COc1cccc(-c2cc3ccc(C)cc3c(N)n2)c1	PANC-1	=	6.33
COc1ccc(-c2cc3cc(C)ccc3c(N)n2)cc1OC	PANC-1	=	5.76
COc1ccc(-c2cc3c(N(C)C)cccc3c(N)n2)cc1OC	PANC-1	<	5.00
Cc1ccc2c(N)nc(-c3c(C)cccc3C)cc2c1	PANC-1	=	6.68
Cc1ccc2cc(-c3ccccc3C)nc(N)c2c1	PANC-1	=	6.70
COc1cccc(-c2cc3cc(OC)c(OC)cc3c(N)n2)c1	PANC-1	=	6.72
CN(C)c1cccc2c(N)nc(-c3ccccc3)cc12	PANC-1	<	5.00
COc1cccc(-c2cc3cc(C)ccc3c(N)n2)c1	PANC-1	=	5.89
COc1ccc(-c2cc3cc(C)ccc3c(N)n2)c(C)c1	PANC-1	=	6.62
Cc1ccc2c(N)nc(-c3ccc4c(c3)OCO4)cc2c1	PANC-1	=	6.66
COc1cc(OC)cc(-c2cc3cc(OC)c(OC)cc3c(N)n2)c1	PANC-1	=	6.15
Cc1ccccc1-c1cc2c(N(C)C)cccc2c(N)n1	PANC-1	<	5.00

---

# Test system: HCT-116
# method_notes: Cytotoxicity against human HCT116 cells by sulforhodamine B method
# Assay type: functional, cell-based
pIC50: −log10 of the molar value.
parameter_measured: pIC50

smiles_entry	comparative_sign	val
Cc1cccc(-c2cc3cc(C)ccc3c(N)n2)c1	=	6.74
Cc1ccc2c(N)nc(-c3c(C)cccc3C)cc2c1	=	6.77
Cc1ccc2c(N)nc(-c3ccc4c(c3)OCO4)cc2c1	=	6.80
COc1cccc(-c2cc3cc(OC)c(OC)cc3c(N)n2)c1	=	6.80
COc1cc2cc(-c3ccccc3C)nc(N)c2cc1OC	=	6.11
COc1cc2cc(-c3ccccc3)nc(N)c2cc1OC	=	6.28
COc1cccc(-c2cc3cc(C)ccc3c(N)n2)c1	=	6.23
COc1ccc(-c2cc3c(N(C)C)cccc3c(N)n2)cc1OC	<	5.00
Cc1ccccc1-c1cc2c(N(C)C)cccc2c(N)n1	<	5.00
COc1cccc(-c2cc3ccc(C)cc3c(N)n2)c1	=	6.68
Cc1ccc2cc(-c3ccccc3C)nc(N)c2c1	=	6.92
COc1cc(OC)cc(-c2cc3cc(OC)c(OC)cc3c(N)n2)c1	=	6.11
CN(C)c1cccc2c(N)nc(-c3ccccc3)cc12	<	5.00
COc1ccc(-c2cc3cc(C)ccc3c(N)n2)c(C)c1	=	6.77
COc1ccc(-c2cc3cc(C)ccc3c(N)n2)cc1OC	=	6.07
